Listed below: IC50 values for each entry.
EXPERIMENTAL_DETAILS: Compound was tested for inhibition of partially purified squalene epoxidase
READOUT_NAME: IC50

STRUCTURE_STRING: CCN(Cc1cccc(OCc2cc(-c3cccs3)cs2)c1)c1ccc(C(=O)c2ccc(CCl)cc2)cc1
RECORDED_VALUE: 500 µM
//
STRUCTURE_STRING: CCN(CC=CC#CC(C)(C)C)Cc1cccc(OCc2cc(CO)cc(C3(C(F)(F)F)N=N3)c2)c1
RECORDED_VALUE: 500 µM
//
STRUCTURE_STRING: CCN(Cc1cccc(OCc2cc(-c3cccs3)cs2)c1)c1cc(O)cc(C2(C(F)(F)F)N=N2)c1
RECORDED_VALUE: 500 µM

Origin of values: BindingDB's records for doi:10.1016/S0960-894X(00)80067-0
